System: MDA-MB-435
TEST DESCRIPTION: NCI tumour cell line growth inhibition, 48 h
Active and inactive are the calls of the source. No stated cut-off is given here; in the data, active = GI50 up to about 1.1 µM and inactive = higher. Peptide text beside a SMILES is read from it. * marks the point of attachment. Boc = CC(C)(C)OC(=O)*
Possible outcomes: T for active, F for inactive

{"COMPOUND": "COc1ccc2nc3ccccc3c(NCCCN(C)CCCl)c2c1", "ANSWER LABEL": "T"}
{"COMPOUND": "Cc1cc(S(=O)(=O)O)ccc1/N=N/c1ccc(/N=N/c2c(O)ccc3ccccc23)c(C)c1", "ANSWER LABEL": "F"}
{"COMPOUND": "COC(=O)C(Cc1c[nH]c2ccccc12)NC(=O)C(Cc1c[nH]c2ccccc12)NC(=O)C(Cc1c[nH]c2ccccc12)NC(=O)C(Cc1c[nH]c2ccccc12)NC(=O)C(Cc1c[nH]c2ccccc12)NC(=O)OC(C)(C)C (centres undefined) (Boc-WWWWW-OMe; configuration not given here)", "ANSWER LABEL": "F"}
{"COMPOUND": "COc1cccc(C(NC2=NCCC=N2)c2cc3c(cc2O)OCO3)c1O (centres undefined)", "ANSWER LABEL": "F"}
{"COMPOUND": "O=C(O)c1ccccn1", "ANSWER LABEL": "F"}
{"COMPOUND": "COc1cc2c(cc1OC)CC(N=[N+]=[N-])c1cc(OC)c(OC)cc1/C=C\\2 (centres undefined)", "ANSWER LABEL": "F"}
{"COMPOUND": "O=C1CCCCC1CN1CCCCC1 (centres undefined)", "ANSWER LABEL": "F"}
{"COMPOUND": "CC(=O)O[C@H]1C(=O)[C@@]2(C)[C@H]([C@H](OC(=O)c3ccccc3)[C@]3(O)C[C@H](OC(=O)[C@H](O)[C@@H](NC(=O)c4ccco4)c4ccccc4)C(C)=C1C3(C)C)[C@]1(OC(C)=O)CO[C@@H]1C[C@@H]2O", "ANSWER LABEL": "T"}
{"COMPOUND": "CCCCOc1ccc(/C=C/C2=[N+](CCO)CCO2)cc1", "ANSWER LABEL": "F"}
{"COMPOUND": "COc1ccc(/C=C(/C(=O)c2ccc(Cl)cc2)N2C=CC=CC2=C(C#N)C#N)cc1OC", "ANSWER LABEL": "F"}
{"COMPOUND": "CC(C)(C)C(=O)C(N)C(=O)C(C)(C)C", "ANSWER LABEL": "F"}
{"COMPOUND": "COc1ccc(-c2cc(=O)c3c(OC)c(OC)c(OC)c(OC)c3o2)cc1", "ANSWER LABEL": "F"}
{"COMPOUND": "CCCCn1c(C)c2c(c1C)C(=O)N(CC(O)CN1CCc3ccccc3C1)C2=O (centres undefined)", "ANSWER LABEL": "F"}
{"COMPOUND": "C=CCNS(=O)(=O)c1ncnc2[nH]cnc12", "ANSWER LABEL": "F"}
{"COMPOUND": "CCOC(=O)c1c(O)cc(=O)[nH]c1N1CCOCC1", "ANSWER LABEL": "F"}
{"COMPOUND": "CN(C)Cc1nsc(N(C)C)n1", "ANSWER LABEL": "F"}
{"COMPOUND": "NC(CCC(=O)O)(CCC(=O)O)CCC(=O)O", "ANSWER LABEL": "F"}
{"COMPOUND": "Cc1ccc2nc(Cl)c(/C=N/N3C(=O)/C(=C/c4ccc(N(C)C)cc4)N=C3c3ccccc3)cc2c1", "ANSWER LABEL": "F"}
{"COMPOUND": "c1cc2c(cc1NC1=NCCO1)CCCC2", "ANSWER LABEL": "F"}
